Target: ETB receptor (Sus scrofa)
Construct: ETB receptors of porcine cerebellum membrane suspension used in the present experiments; from tissue; host or cells: porcine cerebellum membrane preparation
Sequence (P35463 27-443): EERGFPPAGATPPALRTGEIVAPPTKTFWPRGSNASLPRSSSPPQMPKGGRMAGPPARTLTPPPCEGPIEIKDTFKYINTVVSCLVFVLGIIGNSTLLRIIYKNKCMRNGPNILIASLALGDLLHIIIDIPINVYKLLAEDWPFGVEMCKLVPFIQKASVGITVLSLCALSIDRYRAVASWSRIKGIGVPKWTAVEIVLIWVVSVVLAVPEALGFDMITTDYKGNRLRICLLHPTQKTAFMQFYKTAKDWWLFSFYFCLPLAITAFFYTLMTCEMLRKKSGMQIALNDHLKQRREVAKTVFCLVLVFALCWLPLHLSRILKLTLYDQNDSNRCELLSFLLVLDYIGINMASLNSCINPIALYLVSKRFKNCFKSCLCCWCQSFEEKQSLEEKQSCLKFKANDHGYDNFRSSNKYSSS
Test: Endothelin binding inhibition test (125I-endothelin-1, porcine cerebellum membrane)
Settings: 1.1 μM test compound; porcine cerebellum membrane (ETB receptors)
Description: The cerebellum of porcine was homogenized in a buffer solution of 10 mM MOPS, pH 7.4, at 4° C. by a polytron. To the homogenate, sucrose was added to a concentration of 20%, and the mixture was centrifuged at 1,000×g for 15 minutes, and the supernatant was further centrifuged at 10,000×g for 15 minutes. The supernatant thereof was further centrifuged at 90,000×g for 40 minutes. […]
Numbered stars: 1 amine (or outer) side, 2 acyl side, 3 side chain; on linkers, the order of the positions; unused ones are H or OH. Square brackets hold non-standard residues; d marks the D form. Peptide text beside a SMILES is read from it. X1 = N#Cc1[nH]c2ccccc2c1C[C@@H](N[*:1])C(=O)[*:2]; dPen = CC(C)(S)[C@@H](N)C(=O)O
measure: inhibition at 1.1 µM (%)
Use % as the unit, but write only the number.

Known inhibition at 1.1 µM results, listed for orientation:
molecule	experimental.target	inhibition at 1.1 µM / %
CCCC[C@@H](NC(=O)[C@@H](Cc1c(C#N)[nH]c2ccccc12)NC(=O)[C@H](CC(C)(C)C)NC(=O)N1C(C)CCCC1C)C(=O)OC (some centres unmarked)	ETB receptor (Sus scrofa)	99
CCC[C@@H](NC(=O)[C@@H](Cc1c(C#N)[nH]c2ccccc12)NC(=O)[C@@H](NC(=O)N1C(C)CCCC1C)C1CCCC1)C(=O)O (some centres unmarked)	ETB receptor (Sus scrofa)	96
CC(C)C[C@@H]1NC(=O)[C@@H](C(C)C)NC(=O)[C@@H]2CCCN2C(=O)[C@@H](CC(=O)O)NC(=O)[C@@H](Cc2c(C#N)[nH]c3ccccc23)NC1=O [Compound 12] (cyclo(L[X1][dD]P[dV]))	ETB receptor (Sus scrofa)	78
CCCC[C@@H](NC(=O)[C@@H](Cc1c(C#N)[nH]c2ccccc12)NC(=O)[C@H](CC(C)C)NC(=O)N1C(C)CCCC1C)C(=O)O (some centres unmarked)	ETB receptor (Sus scrofa)	99

Switching to the query record.
For COC(=O)C[C@H]1NC(=O)[C@@H](Cc2c(C#N)[nH]c3ccccc23)NC(=O)[C@H](CC(C)C)NC(=O)[C@@H](C(C)(C)SC)NC(=O)[C@@H]2CCCN2C1=O [Compound 10] (cyclo(L[X1][dD](OMe)P[dPen](Me))) , write its inhibition at 1.1 µM. 65
